Structures can show the parent of a compound that is named as a salt.
# maps each entry to its melting point
property name: melting point

• CC(C)(C)C(=O)c1c[nH]c2ncc(-c3cn(Cc4ccccc4)nn3)nc12 = 235 to 237 °C
• CCc1nccn1-c1cnc2[nH]cc(C(=O)C(C)(C)C)c2n1 = 276 to 278 °C
• CC(C)(C)C(=O)c1c[nH]c2ncc(-c3ccnc(N4CCSCC4)c3)nc12 = 287 to 290 °C
• CC(C)(C)C(=O)c1c[nH]c2ncc(C3=C(c4ccccc4)CCC3)nc12 = 207 to 209 °C
• CCC(CC)NC(=O)c1cc(-c2cnc3[nH]cc(C(=O)C4(C)CCCCC4)c3n2)cs1 (as salt: hydrochloride) = 273 to 275 °C
• CC1(C(=O)c2c[nH]c3ncc(-c4cccs4)nc23)CCCCC1 = 224 to 225 °C
• CC(C)(C)C(=O)c1c[nH]c2ncc(-c3cncs3)nc12 = 281 to 282 °C
